test system: Staphylococcus aureus; assay: Antimicrobial activity against Staphylococcus aureus after 24 hrs by agar well diffusion assay; format: functional
Could you please mark criterion met for values of MIC below 10 µg/mL and criterion not met for values at or above it?

Please review the entries below; each comes with its answer.
> print(dat)
                                  structure      discretelabel
1  O=S1(=O)c2ccc(cc2)Cn2cc[n+](c2)Cc2ccc(cc2)C[n+]2ccn(c2)Cc2ccc1cc2.[Br-].[Br-]  criterion not met
2  O=S1(=O)c2ccc(cc2)Cn2cc[n+](c2)Cc2ccc(cc2)-c2cccc(c2)-c2ccc(cc2)C[n+]2ccn(c2)Cc2ccc1cc2.[Br-].[Br-]  criterion not met
3  O=C1c2ccc(cc2)C[n+]2ccn(c2)Cc2ccc(cc2)S(=O)(=O)c2ccc(cc2)Cn2cc[n+](c2)Cc2ccc1cc2.[Br-].[Br-]  criterion not met
4  O=C1c2ccc(cc2)C[n+]2ccn(c2)Cc2ccc(cc2)S(=O)(=O)c2ccc(cc2)Cn2cc[n+](c2)Cc2ccc(cc2)C(=O)c2cccc1c2.[Br-].[Br-]  criterion not met
5  O=S1(=O)c2ccc(cc2)Cn2cc[n+](c2)Cc2ccccc2C[n+]2ccn(c2)Cc2ccc1cc2.[Br-].[Br-]  criterion not met
6  O=S1(=O)c2ccc(cc2)Cn2cc[n+](c2)Cc2cccc(c2)C[n+]2ccn(c2)Cc2ccc1cc2.[Br-].[Br-]  criterion not met

Q: In the record for "O=S1(=O)c2ccc(cc2)Cn2cc[n+](c2)Cc2ccc(cc2)S(=O)(=O)c2ccc(cc2)C[n+]2ccn(c2)Cc2ccc1cc2.[Br-].[Br-]" , is MIC less than 10 µg/mL?
Ans: criterion met

Q: In the record for "O=C(O)c1cn(C2CC2)c2cc(N3CCNCC3)c(F)cc2c1=O" , is MIC less than 10 µg/mL?
Ans: criterion met
